Ki values for UniProt O14965, compiled from several publications.

Please review the following examples before continuing.
compound	Ki
Cn1cc(Nc2nccc(NC3C4C=CC(C4)C3C(N)=O)n2)cn1 (mixture of isomers)	1000 to 5000 nM
Nc1cccc(-c2cnc3[nH]cc(-c4oncc4-c4cccc(F)c4F)c3c2)c1	< 200 nM
Nc1nn2cc(-c3ccncc3)cnc2c1-c1cc(NCC2CCCCC2)ncn1	< 500 nM

The following compounds each have a reported value; give each one's Ki.
1. c1csc(CNc2nc(Nc3cc(C4CC4)[nH]n3)c3ccccc3n2)c1
2. C#CCN(C)C(=O)c1cccc(-c2cnc3c(-c4ccccn4)c(N)nn3c2)n1
3. NC(=O)[C@@H]1[C@H]2CC[C@H](C2)[C@@H]1Nc1nc(Nc2cnn(CCN3CCOCC3)c2)ncc1Cl.NC(=O)[C@H]1[C@@H]2CC[C@@H](C2)[C@H]1Nc1nc(Nc2cnn(CCN3CCOCC3)c2)ncc1Cl (mixture of isomers)
4. FC(F)(F)c1ccccc1-c1nc(Nc2n[nH]c3ccccc23)cc(-c2ccccc2)n1

**A:**
< 100 nM
500 to 5000 nM
< 100 nM
100 to 1000 nM

###

Ki values for Aurora kinase A (Homo sapiens, UniProt O14965), compiled from several publications.

> print(dat)
                                givensmiles  measuredresult
1   CSc1nc(Nc2cc(C)[nH]n2)cc(N2CCN(C)CC2)n1     0.1 to 1 µM
2  CS(=O)(=O)Nc1ccc(-c2cnc3[nH]cc(-c4oncc4-c4cccc(F)c4F)c3c2)cc1        < 0.2 µM
3  c1ccc2c(Nc3cc(C4CC4)n[nH]3)nc(N3CCCCCC3)nc2c1        < 0.1 µM

The following molecules each have a reported value; give each one's Ki.
1. COCCN1CCN(C(=O)c2ccc(-c3cnc4c(-c5ccccn5)c(N)nn4c3)nc2)CC1
2. CN1CCN(Cc2ccc(-c3cnc4[nH]cc(-c5oncc5-c5cccc(F)c5F)c4c3)cc2)CC1
3. Nc1nn2cc(-c3cccc(C(=O)N4CCC[C@@H]4CN4CCCC4)n3)cnc2c1-c1ccccn1
4. Cc1ccc(Sc2nc(Nc3cc(C4CC4)[nH]n3)c3ccccc3n2)cc1C
5. Nc1nn2cc(-c3ccc(CN4CCOCC4)cc3)cnc2c1-c1ccccn1

**A:**
["< 0.5 µM", "< 0.2 µM", "0.5 to 5 µM", "< 0.1 µM", "< 0.5 µM"]

###

pKi: −log10 of the molar value.
pKi values for UniProtKB O14965, compiled from several publications.

Please review the following examples before continuing.
compound	pKi
Cc1cnc(Nc2cc(N3CC4CCCNC4C3)nc(Sc3ccc(NC(=O)C4CC4)cc3)n2)s1 (stereo not shown)	≥ 8.00
CCN1CCN(C(=O)c2ccc(-c3cnc4c(-c5ccccn5)c(N)nn4c3)nc2)CC1	> 6.30
NC(=O)[C@@H]1[C@H](Nc2nc(Nc3cnn(CCN4CCCC4)c3)ncc2Cl)[C@H]2C=C[C@@H]1C2 (racemic)	> 7.00
CCn1cc(Nc2ncc(Cl)c(N[C@@H]3[C@H](C(=O)NC)[C@H]4C=C[C@@H]3C4)n2)cn1.CCn1cc(Nc2ncc(Cl)c(N[C@H]3[C@@H](C(=O)NC)[C@@H]4C=C[C@H]3C4)n2)cn1 (mixture of isomers)	> 7.00
Cc1cc(Nc2nc(-c3cc(F)cc(F)c3)nc3ccccc23)[nH]n1	> 7.00
CCn1c(C)c(-c2ccnc(Nc3ccc(Cl)cc3)n2)sc1=O	5.96

**Q:** Need pKi of `Cc1cc(Nc2cc(N3CCC(N4CCOCC4)CC3)nc(Sc3ccc(NC(=O)CC(F)(F)F)cc3)n2)[nH]n1` , thanks.
**A:** ≥ 8.00

###

pKi values for Aurora kinase A (Homo sapiens, UniProt O14965), compiled from several publications.
pKi: −log10 of the molar value.

compound	pKi
CCn1cc(Nc2ncc(OC)c(NC3C4C=CC(C4)C3C(N)=O)n2)cn1 (mixture of isomers)	> 7.00
NC(=O)[C@@H]1[C@H](Nc2nc(Nc3cnn(C4CCC4)c3)ncc2Cl)[C@H]2C=C[C@@H]1C2	> 7.00
CCn1cc(Nc2ncc(Br)c(N[C@@H]3[C@H](C(N)=O)[C@H]4C=C[C@@H]3C4)n2)cn1.CCn1cc(Nc2ncc(Br)c(N[C@H]3[C@@H](C(N)=O)[C@@H]4C=C[C@H]3C4)n2)cn1 (mixture of isomers)	> 7.00
Fc1cccc(-c2cnoc2-c2c[nH]c3ncc(-c4ccccc4)cc23)c1F	6.00 to 6.70
COc1cccc2c(Nc3n[nH]c4ccccc34)nc(-c3ccccc3C(F)(F)F)nc12	4.70 to 6.00

The following compounds each have a reported value; give each one's pKi.
1. Clc1ccc(-c2nc(Nc3cc(C4CC4)n[nH]3)c3ccccc3n2)cc1
2. CN(CCN)C(=O)c1ccc(-c2cnc3c(-c4ccccn4)c(N)nn3c2)nc1
3. CC(=O)Nc1ccc(Sc2nc(Nc3cc(C)[nH]n3)c3cccc(OCCCN4CCOCC4)c3n2)cc1
4. Cc1cc(Nc2nc(N3CCC4(CC3)OCCO4)nc3ccccc23)[nH]n1
5. COc1ccccc1OCCNc1nc(Nc2cc(C)[nH]n2)cc(C)c1C#N
6. NC(=O)[C@@H]1CCC[C@@H]1Nc1nc(Nc2cnn(C3CCNCC3)c2)ncc1Cl.NC(=O)[C@H]1CCC[C@H]1Nc1nc(Nc2cnn(C3CCNCC3)c2)ncc1Cl (mixture of isomers)
7. CCC(=O)Nc1ccc(Sc2nc(Nc3cc(C)n[nH]3)cc(N3CCC(N4CCCC4)CC3)n2)cc1

**A:**
1: > 7.00; 2: 5.30 to 6.30; 3: > 7.00; 4: > 7.00; 5: 8.22; 6: > 7.00; 7: ≥ 8.00

The following compounds each have a reported value; give each one's pKi.
1. OCc1cc(Nc2nc(-c3ccccc3)nc3ccccc23)[nH]n1
2. CCc1cccc(Nc2nc(Nc3cc(C4CC4)[nH]n3)c3ccccc3n2)c1
3. Cc1cnc2c(-c3cc(NCC4CC4)ncn3)c(N)nn2c1
4. NC(=O)[C@H]1[C@@H]2CC[C@@H](C2)[C@H]1Nc1nc(Nc2cnn(CCO)c2)ncc1Cl

**A:**
1. 6.00 to 7.00
2. > 7.00
3. 5.30 to 6.30
4. > 7.00

###

Ki values for Aurora kinase A (Homo sapiens), compiled from several publications.

Please review the following examples before continuing.
molecule	measuredResult
CNCCCN(C)Cc1ccc(-c2cnc3c(-c4ccccn4)c(N)nn3c2)cc1	< 500 nM
COc1ccc(C2=NNC(=O)/C2=N\Nc2cccc(Cl)c2)cc1OC	100 to 1000 nM
CN[C@H]1CCN(c2cc(Nc3ncc(C)s3)nc(Sc3ccc(NC(=O)C4CC4)cc3)n2)C1	≤ 10 nM
Cc1cc(Nc2nc(-c3ccncc3)nc3cc(Cl)ccc23)[nH]n1	100 to 1000 nM
COc1ccccc1-c1nc(Nc2cc(C)[nH]n2)c2ccccc2n1	< 100 nM
COCCNS(=O)(=O)c1cccc(Nc2nccc(-c3sc(=O)n(C)c3C)n2)c1	390 nM
NC(=O)[C@@H]1[C@H](Nc2nc(Nc3cn[nH]c3)ncc2F)[C@H]2C=C[C@@H]1C2.NC(=O)[C@H]1[C@@H](Nc2nc(Nc3cn[nH]c3)ncc2F)[C@@H]2C=C[C@H]1C2 (mixture of isomers)	100 to 1000 nM
CCC(=O)Nc1ccc(Sc2nc(Nc3cc(C)n[nH]3)cc(N3CCC(N4CCOCC4)CC3)n2)cc1	≤ 10 nM

The following molecules each have a reported value; give each one's Ki.
1. COC(=O)N1CCN(C(=O)c2ccc(-c3cnc4c(-c5ccccn5)c(N)nn4c3)nc2)CC1
2. C[C@@H](O)Cn1cc(Nc2ncc(C(F)(F)F)c(N[C@H]3[C@@H](C(N)=O)[C@@H]4C=C[C@H]3C4)n2)cn1
3. Nc1nn2cc(-c3ccc(C(=O)N4CCCCC4CCO)cn3)cnc2c1-c1ccccn1 (centres unmarked)
4. CCOc1ccc(C2=NNC(=O)C2=NNc2ccc(N(CC)CC)cc2)cc1OCC

**A:**
1: < 500 nM; 2: < 100 nM; 3: 500 to 5000 nM; 4: < 100 nM

###

Ki values for UniProt:O14965, compiled from several publications.

Please review the following examples before continuing.
> print(dat)
                                givensmiles  observedproperty    measuredresult
1  COC(=O)c1cccc(Oc2nc(Nc3cc(C4CC4)[nH]n3)cc(-c3ccccc3)n2)c1                Ki    100 to 1000 nM
2  NC(=O)[C@@H]1[C@H](Nc2nc(Nc3cnn(CC(F)(F)F)c3)ncc2Cl)[C@H]2C=C[C@@H]1C2                Ki          < 100 nM
3  Fc1ccc2[nH]nc(Nc3nc(-c4ccccc4Cl)nc4ccccc34)c2c1                Ki  1000 to 20000 nM

# input for lookup
**Q:** Need Ki of `COc1ccc(C)c(Nc2nccc(-c3sc(=O)n(C)c3C)n2)c1` , thanks.
**A:** 2600 nM
